molecular target: Rat 5HT7 Receptors (Rattus norvegicus, UniProt P32305); construct: expressed in transfected cells; host or cells: HEK-293; assay: 3H-5-Carboxamidotryptamine (3H-5-CT) binding to rat 5HT7 receptors expressed in HEK-293 cells; settings: 3H-5-CT 0.4 nM radioligand; HEK-293 cell membranes expressing rat 5HT7; Cheng & Prusoff; read-out: Ki
Sequence (P32305 whole entry): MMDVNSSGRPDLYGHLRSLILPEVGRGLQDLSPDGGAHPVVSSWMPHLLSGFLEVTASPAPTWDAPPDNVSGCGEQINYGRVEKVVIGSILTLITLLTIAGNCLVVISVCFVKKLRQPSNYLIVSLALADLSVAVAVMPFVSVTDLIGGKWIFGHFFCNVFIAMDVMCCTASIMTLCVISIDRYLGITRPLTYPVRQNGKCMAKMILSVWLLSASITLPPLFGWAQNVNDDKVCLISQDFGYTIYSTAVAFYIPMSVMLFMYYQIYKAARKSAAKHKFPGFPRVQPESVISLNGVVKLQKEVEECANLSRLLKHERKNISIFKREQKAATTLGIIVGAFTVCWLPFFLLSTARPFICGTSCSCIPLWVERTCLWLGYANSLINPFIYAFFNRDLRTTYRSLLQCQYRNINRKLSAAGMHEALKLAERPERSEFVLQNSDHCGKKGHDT
measuredQuantity: Ki

>>> df
                               compound  measuredquantity  endpointresult
0  CCc1cnc2cc(C3CCCNC3)ccc2c1 (racemic)                Ki         ~0.5 µM
